System: SK-MEL-28
Procedure summary: NCI tumour cell line growth inhibition, 48 h
Active and inactive are the calls of the source. Cut-off read from the data, not from the text of the source: active = GI50 up to about 1.1 µM and inactive = higher.
Property: GI50

For record O=[N+]([O-])C1(CO)COC2(OC1)c1ccccc1-c1ccccc12 the listed GI50 is > 100 µM (inactive)

For record O=C1Nc2ccccc2/C1=N/Nc1nc(-c2ccc(Br)cc2)cs1 the listed GI50 is 12.6 µM (inactive)

For record COc1ccc(/C=C2\Cc3ccccc3C2=O)cc1OC the listed GI50 is > 100 µM (inactive)

For record OCC1OC(N2CCN(C3OC(CO)C(O)C(O)C3O)CC2)C(O)C(O)C1O (stereo not given) the listed GI50 is > 100 µM (inactive)

For record COc1ccc(N2C(=O)/C(=C\c3cc(OC)c(OC)c(OC)c3)SC2c2ccccc2)cc1 (stereo not given) the listed GI50 is > 100 µM (inactive)

====

Provide the recorded GI50 for the entries that follow.
Test system: K562
Procedure summary: NCI tumour cell line growth inhibition, 48 h
Activity calls are given as the source filed them. Rule as the data show it: active = GI50 up to about 1.1 µM and inactive = higher.

For record CC(c1ccc(Br)cc1)C(C(=O)O)C(=O)O (configuration not stated) the listed GI50 is > 100 µM (inactive)

For record COC(=O)CCc1ccc2c(c1)CC1(Cc3ccccc3C1)C2 the listed GI50 is > 100 µM (inactive)

For record N#Cc1nc(C2CCC2)oc1N the listed GI50 is > 100 µM (inactive)

For record CCOC(=O)Cn1c(=O)c2nc(SC)sc2n(-c2ccccc2)c1=O the listed GI50 is > 100 µM (inactive)

For record Cc1ccc2c(O)cc(-c3ccc(F)cc3)nc2n1 the listed GI50 is 22 µM (inactive)

For record Cc1c2ccccc2c(CO)c2cc(F)c3ccccc3c12 the listed GI50 is 23.5 µM (inactive)

For record COC(=O)N/N=C(\C)CC(=O)Nc1ccc(Cl)cc1 the listed GI50 is > 100 µM (inactive)

====

System: COLO 205
Procedure summary: NCI tumour cell line growth inhibition, 48 h
Calls of active or inactive are those of the source. Cut-off read from the data, not from the text of the source: active = GI50 up to about 1.1 µM and inactive = higher.
Would you mind answering with one of these outcomes? active, inactive

Tell me the recorded outcome of this test for OCC[N+]12CCCN1CCC2 .
inactive

Tell me the recorded outcome of this test for CCOC(=O)NC(C(C(=O)OCC)C(=O)OCC)(C(F)(F)F)C(F)(F)F .
inactive

Tell me the recorded outcome of this test for O=c1ccn(-c2ccccn2)c(=O)n1-c1ccccn1 .
inactive

Tell me the recorded outcome of this test for COc1cc(/C=C/c2ccc(OC(C)=O)cc2)cc(OC)c1OC .
inactive

Tell me the recorded outcome of this test for CN(/N=C/C=N/N(C)C1=NCCCCN1)C1=NCCCCN1 .
inactive

Tell me the recorded outcome of this test for CC(c1ccc(Br)cc1)C(C(=O)O)C(=O)O (stereo not drawn) .
inactive

Tell me the recorded outcome of this test for CC(=O)SC(C[N+](=O)[O-])c1ccc2c(c1)OCO2 (stereo not drawn) .
inactive

Tell me the recorded outcome of this test for C#CCCCCC#Cc1ccccc1C(=O)OC .
inactive

Tell me the recorded outcome of this test for N#C/C(=C\n1ccc(=O)[nH]c1=S)C(N)=O .
inactive

Tell me the recorded outcome of this test for CN(CCCNC(=O)c1c2ccc3ccccc3c2nn1C)CCCNC(=O)c1c2ccc3ccccc3c2nn1C .
inactive

Tell me the recorded outcome of this test for Nc1nc(N)c(N=Nc2ccc([As](=O)(O)O)c(O)c2)c(N)n1 .
inactive

Tell me the recorded outcome of this test for C/C(=C/CC[C@]1(CO)CC[C@]2(C)[C@H](CC[C@@H]3[C@@]4(C)CC[C@H](OC5OC(CO)C(O)C(O)C5OC5OC(CO)C(O)C(O)C5O)C(C)(C)[C@@H]4CC[C@]32C)[C@H]1O)CO (stereo partly drawn) .
inactive

Tell me the recorded outcome of this test for CN1S(=O)(=O)N(C)P12(N=P(CP(=NP13(N(C)S(=O)(=O)N1C)N(C)S(=O)(=O)N3C)(c1ccccc1)c1ccccc1)(c1ccccc1)c1ccccc1)N(C)S(=O)(=O)N2C .
inactive

Tell me the recorded outcome of this test for C=CC/C(C(=O)OC)=C(/C(=O)OC)N(CCC)CCC .
inactive

Tell me the recorded outcome of this test for O=[N+]([O-])c1cccc2nc3ccccc3c(NCCN(CCO)CCO)c12 .
active

Tell me the recorded outcome of this test for C=C1[C@H]2O[C@H]2[C@@H](OC(C)=O)[C@@]2(C)[C@@H](OC(C)=O)C[C@@H](OC(=O)CCC)[C@@](C)(O)[C@@H]2[C@@H](OC(C)=O)[C@]2(O)[C@@H](C)C(=O)O[C@H]2[C@H]1Cl .
inactive

Tell me the recorded outcome of this test for CC1(C)CC(=O)c2c(-c3ccc(Cl)cc3)c(C#N)c(=S)n(C3OC(CO)C(O)C(O)C3O)c2C1 (stereo not drawn) .
inactive

Tell me the recorded outcome of this test for CC1=CN(c2ccccc2)S2=C1c1sc3c(c1N2c1ccc(Br)cc1)CCCC3 (stereo not drawn) .
inactive

Tell me the recorded outcome of this test for O=C1NCCS(=O)(=O)N[C@@H](CC2=CC=CCC2)C(=O)N2CCCC12 (stereo partly drawn) .
inactive

Tell me the recorded outcome of this test for CC(=O)O[C@H]1C(=O)[C@@]2(C)[C@H]([C@H](OC(=O)c3ccncc3)[C@]3(O)C[C@H](OC(=O)[C@H](O)[C@@H](NC(=O)c4ccccc4)c4ccccc4)C(C)=C1C3(C)C)[C@]1(OC(C)=O)CO[C@@H]1C[C@@H]2O .
inactive

Tell me the recorded outcome of this test for CCOC(=O)c1sc2nc(SC)nc3c2c1NCN3c1ccc2c(c1)OCO2 .
inactive

Tell me the recorded outcome of this test for Cc1ccc(C(=O)Nc2ccc(CP(=O)(O)O)cc2)cc1NC(=O)Nc1cc(C(=O)Nc2ccc(CP(=O)(O)O)cc2)ccc1C .
inactive

Tell me the recorded outcome of this test for Cc1ccc(S(=O)(=O)N/N=C2\CC3C4CCC3C2C4)cc1 (stereo not drawn) .
inactive

Tell me the recorded outcome of this test for C[n+]1c(-c2ccccc2)cc2/c(=C\c3ccc([N+](=O)[O-])cc3)c3ccccc3n21 .
active

Tell me the recorded outcome of this test for O=C1C=C(Nc2ccccc2C(=O)CC(=O)C(=O)Nc2cccc([N+](=O)[O-])c2)c2ccccc2C1=O .
inactive

Tell me the recorded outcome of this test for O=c1c2ccccc2nc2sc(/N=C/C=C/c3ccccc3)nn12 .
inactive

Tell me the recorded outcome of this test for CCOC(=O)CP(=S)(S)c1ccccc1 (stereo not drawn) .
inactive

Tell me the recorded outcome of this test for CN1c2c(O)nc(N)nc2NCC1CCNc1ccc(C(=O)NC(CCC(=O)O)C(=O)O)cc1 (stereo not drawn) .
inactive

Tell me the recorded outcome of this test for O=c1[nH]nc2c3n[nH]c(=O)n3c3ccccc3n12 .
inactive

Tell me the recorded outcome of this test for CCOc1ccc(N/C(=C(/C(Cl)=C(/Cl)NCCN)[N+](=O)[O-])n2nnc3ccccc32)cc1 .
inactive

Tell me the recorded outcome of this test for CCOC(=O)c1c(OCC)[nH]c(=O)c(C(c2cccs2)c2c(O)c(C(=O)OCC)c(OCC)[nH]c2=O)c1O .
inactive

Tell me the recorded outcome of this test for OC12CC/C(=N/OCc3ccccc3)CC1c1ccccc12 (stereo not drawn) .
inactive

Tell me the recorded outcome of this test for Clc1cc(OC23CC4CC(CC(C4)C2)C3)nc(Cl)n1 .
inactive

Tell me the recorded outcome of this test for Cn1c(=O)c(C(=O)Nc2nc(C34CC5CC(CC(C5)C3)C4)cs2)c(O)c2ccccc21 .
inactive

Tell me the recorded outcome of this test for Nc1nc(Cl)cc(NC23CC4CC(CC(C4)C2)C3)n1 .
inactive

Tell me the recorded outcome of this test for NC(=O)CSc1nc2ccccc2c(=O)n1N .
inactive

Tell me the recorded outcome of this test for CCOC(=O)c1nc2ccccc2nc1Oc1ccc(F)cc1 .
inactive

Tell me the recorded outcome of this test for C=C(Br)CN(C(C)=O)C1CCCCC1 .
inactive

Where do the numbers come from? From ChEMBL document CHEMBL1201862.
